The reported measurements were obtained from PubChem BioAssay (NCI).

For each of the compounds below, state its growth.
# Tested on: NCI-H322M lung
# Assay text: NCI-60 one-dose screen, 48 h (100 = growth as untreated, 0 = no growth, -100 = all killed)
# Condition notes: 10 µM unless noted
This is part of a sample that, as a whole, favours compounds with a hit. Of some 83,000 tested, about 20% had one in any assay.
Express the result in % but write the number alone.

Asked: Field request: growth | item: COc1cc(C(=O)c2cc(C(C)=O)c3c(C)cccn23)cc(OC)c1OC
Given back: 98.5

Asked: Field request: growth | item: Cc1ccc(C(=O)CSc2nc3ccccc3c(=O)n2C)cc1
Given back: 89.1

Asked: Field request: growth | item: Cn1c(SCC(=O)c2ccc(F)cc2)nc2ccccc2c1=O
Given back: 99.8

Asked: Field request: growth | item: Cc1ccc(CSC2=C(Cl)CN(c3ccc(Cl)cc3)C2=O)cc1
Given back: 104

Asked: Field request: growth | item: Brc1ccc(-c2cc(-c3ccc4c(c3)OC=CO4)n[nH]2)s1
Given back: 96.2

Asked: Field request: growth | item: Fc1cccc(Cl)c1/C=N/Nc1nc(N/N=C/c2c(F)cccc2Cl)nc(N2CCCCC2)n1
Given back: 35.8

Asked: Field request: growth | item: CNC(=O)c1cc(Oc2ccc3c(c2)sc2nc(-c4ccc(N(C)C)cc4)cn23)ccn1
Given back: 48.1

Asked: Field request: growth | item: O=[N+]([O-])c1ccc(NC(=S)NNC(=S)Nc2ccc(Br)cc2)cc1
Given back: 63.3

Asked: Field request: growth | item: CN(C)c1ccc(/C=N/Nc2nc(N/N=C/c3ccc(N(C)C)cc3)nc(N3CCCCC3)n2)cc1
Given back: 100

Asked: Field request: growth | item: Cc1ccc(C(=O)CSc2nnc(-c3ccc(-c4ccc(Cl)cc4)nc3C)o2)cc1
Given back: 95.8

Asked: Field request: growth | item: CC(=C(c1ccc(OCCN(C)C)cc1)c1ccc(OCCN(C)C)cc1)c1ccc(Cl)cc1
Given back: -3.42

Asked: Field request: growth | item: CN1CCN(c2ccc(Nc3nc(NCCCNS(=O)(=O)c4ccccc4)c4sccc4n3)cc2)CC1
Given back: 80.3

Asked: Field request: growth | item: CC(C)(C)c1cc(NC(=O)Nc2ccc(-c3cn4c5c(sc4n3)CCc3c[nH]cc3-5)cc2)no1
Given back: 47.6

Asked: Field request: growth | item: CC(=O)OC[C@]12CC[C@@H](C(=O)/C=C/c3cccnc3)[C@@H]1[C@H]1CC[C@@H]3[C@@]4(C)CC[C@H](OC(C)=O)C(C)(C)[C@@H]4CC[C@@]3(C)[C@]1(C)CC2
Given back: 53.5

Asked: Field request: growth | item: Cc1cccc(N2CCN(C3=C(Cl)C(=O)c4ncccc4C3=O)CC2)c1
Given back: 93.8

Asked: Field request: growth | item: CC1=C(SCC(=O)OCCCCCC(C)C)C(=O)c2ccccc2C1=O
Given back: 100

Asked: Field request: growth | item: Cc1cc2nc(C(Cl)Cl)nc(-c3ccc(S(=O)(=O)N(C)C)cc3)n2n1
Given back: 69.3

Asked: Field request: growth | item: C#CCN(C)CCCOc1ccc(NC(=O)CCCCCCCCC(=O)NO)cc1Cl
Given back: 92.2

Asked: Field request: growth | item: Cc1cc2nc3c4cc(C#N)ccc4n(CCN(C)C)c3nc2cc1C
Given back: -0.486

Asked: Field request: growth | item: COC(=O)c1cccc(NC2=C(Cl)C(=O)C(C)=C(C)C2=O)c1
Given back: 100
